Taken from paper PMC6556873.

Molecular target: OTUB2 (OTUB2A) (Homo sapiens, UniProt Q96DC9)
Construct: full length residues 1-234, E. coli BL21(DE3)-R3, His tag removed by TEV, construct 27312 Da
Sequence (Q96DC9 1-234): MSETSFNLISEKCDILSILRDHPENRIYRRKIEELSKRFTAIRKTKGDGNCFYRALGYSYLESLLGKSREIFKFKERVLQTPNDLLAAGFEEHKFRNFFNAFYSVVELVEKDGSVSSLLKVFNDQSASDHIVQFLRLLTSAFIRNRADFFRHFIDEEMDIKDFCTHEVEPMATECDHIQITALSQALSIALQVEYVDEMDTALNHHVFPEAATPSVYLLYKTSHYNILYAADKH
Set-up: Intact protein LC/MS covalent labelling, fragments in pools of five, 200 uM each, 4 °C
Settings: 24 h, 4 °C, pool of five; 200 µM; covalent
measured.property: OTUB2
Kindly provide the number alone.

Prompt: Fill in: OTUB2 on OTUB2 (OTUB2A) (Homo sapiens, UniProt Q96DC9), entry O=C(CCl)N(C1CCCCC1)C1CCS(=O)(=O)C1 (centres unmarked)
Completion: 0

Prompt: Fill in: OTUB2 on OTUB2 (OTUB2A) (Homo sapiens, UniProt Q96DC9), entry C#Cc1cccc(NC(=O)CCl)c1
Completion: 0.09

Prompt: Fill in: OTUB2 on OTUB2 (OTUB2A) (Homo sapiens, UniProt Q96DC9), entry CCc1cccc(C)c1NC(=O)CCl
Completion: 0

Prompt: Fill in: OTUB2 on OTUB2 (OTUB2A) (Homo sapiens, UniProt Q96DC9), entry C=CC(=O)N1CCC(CN)CC1.Cl
Completion: 0

Prompt: Fill in: OTUB2 on OTUB2 (OTUB2A) (Homo sapiens, UniProt Q96DC9), entry O=C(CCl)NC(=O)Nc1ccc(Br)cc1
Completion: 0.1

Prompt: Fill in: OTUB2 on OTUB2 (OTUB2A) (Homo sapiens, UniProt Q96DC9), entry C=CC(=O)NC1(C(N)=O)CCCOC1 (centres unmarked)
Completion: 0

Prompt: Fill in: OTUB2 on OTUB2 (OTUB2A) (Homo sapiens, UniProt Q96DC9), entry CC(C)N(C(=O)CCl)C(C)C
Completion: 0

Prompt: Fill in: OTUB2 on OTUB2 (OTUB2A) (Homo sapiens, UniProt Q96DC9), entry O=C(CCl)Nc1ccccc1N1CCOCC1
Completion: 0

Prompt: Fill in: OTUB2 on OTUB2 (OTUB2A) (Homo sapiens, UniProt Q96DC9), entry C=CC(=O)NC1CCCN(c2cc(C)nn2C)C1=O (centres unmarked)
Completion: 0

Prompt: Fill in: OTUB2 on OTUB2 (OTUB2A) (Homo sapiens, UniProt Q96DC9), entry CC1CCC(C#N)(N(C)C(=O)CCl)CC1 (centres unmarked)
Completion: 0

Prompt: Fill in: OTUB2 on OTUB2 (OTUB2A) (Homo sapiens, UniProt Q96DC9), entry O=C(CCl)NCc1ccc(F)cc1C(F)(F)F
Completion: 0.33
